B1: TPR 5TU (parent)
chain: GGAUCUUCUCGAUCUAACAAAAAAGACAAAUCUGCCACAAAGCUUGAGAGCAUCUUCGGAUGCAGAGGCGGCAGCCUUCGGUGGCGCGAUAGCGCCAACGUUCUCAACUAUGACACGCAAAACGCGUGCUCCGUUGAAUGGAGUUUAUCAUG

# Variants of: B1
# experimentDescription: polymerase ribozyme fitness, log enrichment relative to wild type (log ratio); higher = more active; in vitro selection for triplet polymerase activity
Fewer inactive variants are shown than the library holds.
Classification field: Met = polymerase ribozyme fitness (log ratio) at or over -3; Not met = polymerase ribozyme fitness (log ratio) under -3.

Quick check, polymerase ribozyme fitness (log ratio) >= -3? A52U A137G
Met

API: above_or_equal(metric=polymerase ribozyme fitness (log ratio), cutoff=-3) for item G11A C85U
Met

Tell me whether polymerase ribozyme fitness (log ratio) is at least -3 here: A47C G59A G62C G67C G68C C99U A107U C114A A121G
Not met

Check the entry A21U G80A : does polymerase ribozyme fitness (log ratio) equal or exceed -3?
Met

Assess whether reported polymerase ribozyme fitness (log ratio) for G58C C95U A150C sits at -3 or higher.
Not met

Could you tell me if the measured polymerase ribozyme fitness (log ratio) of A30G A138G reaches -3 or more?
Not met

Textbook exercise: given the entry C54U C96G , state whether its polymerase ribozyme fitness (log ratio) is greater than or equal to -3.
Met

Check if polymerase ribozyme fitness (log ratio) >= -3 (inclusive). Item: C35G C96U
Not met

Is polymerase ribozyme fitness (log ratio) at least -3? Consider C14U A21G A24C A28U U53C C75U
Not met

Is polymerase ribozyme fitness (log ratio) for U6C U7G G59U G68C U82C G136U at or above -3?
Not met

Check if polymerase ribozyme fitness (log ratio) >= -3 (inclusive). Item: G152C
Met

// inclusive: polymerase ribozyme fitness (log ratio) at least -3? input: C99G C108A A110G
Not met

Evaluate G46C A64G A91C : polymerase ribozyme fitness (log ratio) at minimum -3?
Not met

API: above_or_equal(metric=polymerase ribozyme fitness (log ratio), cutoff=-3) for item U78C A120U G133U G141A
Not met

polymerase ribozyme fitness (log ratio) >= -3 for A21C C96U ?
Met

Could you tell me if the measured polymerase ribozyme fitness (log ratio) of C32G G42U U55A U61A C85A C95A A107U reaches -3 or more?
Not met

# check: polymerase ribozyme fitness (log ratio) of C93U C95U is greater than or equal to -3
Met

Entry C10A A37U C79A C85U C87A : is its polymerase ribozyme fitness (log ratio) no less than -3?
Not met

Is it the case that A47C U61A has polymerase ribozyme fitness (log ratio) reaching or exceeding -3?
Not met

Can G58C U82A G143C be said to have polymerase ribozyme fitness (log ratio) at or above -3?
Met

Identify whether the reported polymerase ribozyme fitness (log ratio) of the following variant is -3 or greater: C10U C27G C54U G92C C114G
Not met

Is polymerase ribozyme fitness (log ratio) for A17U A21C U44A A49C C72A U82A U134A at or above -3?
Not met

Test whether the variant C54U A66G C72U G81C C96A A107G G133U U145A records polymerase ribozyme fitness (log ratio) of -3 or higher.
Not met

# bool: polymerase ribozyme fitness (log ratio) of C10U C18G A19C A40U C87G G88U >= -3
Not met

Dear colleague, could you confirm whether C54G C75U has polymerase ribozyme fitness (log ratio) at or above -3?
Met

Dear colleague, could you confirm whether G84A G140A has polymerase ribozyme fitness (log ratio) at or above -3?
Not met

In plain terms: is recorded polymerase ribozyme fitness (log ratio) at least -3 for C18A U56A G92U C105U C114A U144G ?
Not met

Hi, just wondering whether A47U C85U A150C shows polymerase ribozyme fitness (log ratio) of -3 or higher.
Not met

Hi team, for A23C U45C A52C U55A C75G C76U C93A A119G G143U , is the recorded polymerase ribozyme fitness (log ratio) at or above -3?
Not met

Say whether G58U G86A C87A shows polymerase ribozyme fitness (log ratio) of -3 or more.
Not met

Exam item: decide whether the reported polymerase ribozyme fitness (log ratio) for A17C A22U A37U A60G G71U U78A C93A U104G A122C is at least -3.
Not met

Does the reported polymerase ribozyme fitness (log ratio) for A26C A91G G136C fall at or above the -3 mark?
Not met

Please indicate if the recorded polymerase ribozyme fitness (log ratio) for G46C U77G A142C meets or exceeds -3.
Not met

Textbook exercise: given the entry A23C A40C G83U U102A U145A , state whether its polymerase ribozyme fitness (log ratio) is greater than or equal to -3.
Not met

Hi team, for U6A A60G C76A U144C , is the recorded polymerase ribozyme fitness (log ratio) at or above -3?
Met

Is it the case that A20G A21U G59C C69A A98G U109A has polymerase ribozyme fitness (log ratio) reaching or exceeding -3?
Not met

Please check the record U6G A16G A29U C54U G86A U102G and state if its polymerase ribozyme fitness (log ratio) is at or above -3.
Not met

Does A52G G141U U145C G152A have a reported polymerase ribozyme fitness (log ratio) of at least -3?
Met

Is polymerase ribozyme fitness (log ratio) for G58U A60C C105G U148G at or above -3?
Not met

For this variant, is measured polymerase ribozyme fitness (log ratio) -3 or higher? U53G C103A C105G U130A
Not met

Determine whether measured polymerase ribozyme fitness (log ratio) meets or exceeds -3 for A21C G25C A52C A89U C118A A119C
Not met

Tell me whether polymerase ribozyme fitness (log ratio) is at least -3 here: C57U G86A A120G G141C
Met

Reported polymerase ribozyme fitness (log ratio) at or above -3? U33A C69G C87G
Not met

Is it the case that A22C C27G A66U U145C has polymerase ribozyme fitness (log ratio) reaching or exceeding -3?
Not met

Does polymerase ribozyme fitness (log ratio) meet or surpass -3 for C10A A12G A60G C93A ?
Not met

Check if polymerase ribozyme fitness (log ratio) >= -3 (inclusive). Item: C10U A26U G42A A47U A89C C96U A107U G112C
Not met
